- measured.target: PPAR alpha (Homo sapiens, UniProt Q07869)
- Sequence (Q07869 239-466 limits assumed): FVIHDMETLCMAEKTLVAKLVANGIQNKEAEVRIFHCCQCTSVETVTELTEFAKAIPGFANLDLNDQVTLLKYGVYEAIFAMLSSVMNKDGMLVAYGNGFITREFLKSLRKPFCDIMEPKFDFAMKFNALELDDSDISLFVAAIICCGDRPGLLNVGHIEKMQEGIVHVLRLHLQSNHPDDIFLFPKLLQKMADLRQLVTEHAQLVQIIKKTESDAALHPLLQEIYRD
- experimental.protocol: Transient transfection (transactivation) assay in CV-1 cells, GAL4-PPAR chimera, luciferase reporter
pEC50: −log10 of the molar value.
reported.endpoint: pEC50

1. Cc1ccc(S(=O)(=O)N2CCN(c3ncc(C(F)(F)F)cc3Cl)CC2)cc1CC(=O)O    > 5.30
2. Cc1ccc(S(=O)(=O)N2CCN(c3ncccn3)CC2)cc1CC(=O)O    < 4.00
3. Cc1ccc(S(=O)(=O)N2CCN(c3ccc(C(F)(F)F)c(F)c3)CC2)cc1CC(=O)O    > 5.30

Problem: Look up pEC50 for this molecule: `Cc1cc(S(=O)(=O)N2[C@H](C)CN(c3ccc(C(F)(F)F)cn3)C[C@@H]2C)cc(CC(=O)O)c1Br`
Solution: < 4.00
